Entry source: the NIST ThermoML archive (doi:10.1021/acs.jced.8b00080)

assay overview: activity coefficient (dimensionless); of the first substance listed, at infinite dilution; xn = mol fraction of the nth substance listed
condition label: 343 K; 101.33 kPa; Liquid; Chromatography; x1 = 0
Tick satisfied if activity coefficient is 7 or greater. Tick not satisfied if activity coefficient is less than 7.

These recorded examples may help you get a feel for the data.
CCO [ethanol] + C[n+]1ccn(CCO)c1.O=S(=O)([O-])C(F)(F)C(F)(F)C(F)(F)C(F)(F)F :: not satisfied
ClC(Cl)Cl [trichloromethane] + C[n+]1ccn(CCO)c1.O=S(=O)([O-])C(F)(F)C(F)(F)C(F)(F)C(F)(F)F :: not satisfied
C=CCCCCCC [oct-1-ene] + C[n+]1ccn(CCO)c1.O=S(=O)([O-])C(F)(F)C(F)(F)C(F)(F)C(F)(F)F :: satisfied

input: Could you verify whether the entry C#CCCCCC [1-heptyne] + C[n+]1ccn(CCO)c1.O=S(=O)([O-])C(F)(F)C(F)(F)C(F)(F)C(F)(F)F shows activity coefficient of no less than 7?
output: satisfied

input: Same again, this time with ClCCl [dichloromethane] + C[n+]1ccn(CCO)c1.O=S(=O)([O-])C(F)(F)C(F)(F)C(F)(F)C(F)(F)F
output: not satisfied

input: Same again, this time with CC#N [acetonitrile] + C[n+]1ccn(CCO)c1.O=S(=O)([O-])C(F)(F)C(F)(F)C(F)(F)C(F)(F)F
output: not satisfied
